# system_name: HLA-A*24:02
# assay_procedure: IEDB peptide-MHC binding, purified MHC/competitive/fluorescence; bounds were set here for any values at or beyond the usual limits of such assays
# recorded_conditions: source organism: Zaire ebolavirus
// values below are reported pIC50
Expect pIC50 as a plain number equal to -log10 of the molar concentration.

Recorded pIC50, per entry:
residue_sequence=SNTTGKLIW measure=pIC50 recorded_number=5.00
residue_sequence=SFQQTNAMV measure=pIC50 recorded_number=4.74
residue_sequence=ICGLRQLAN measure=pIC50 recorded_number=4.79
residue_sequence=DAVLYYHMM measure=pIC50 recorded_number=5.50
residue_sequence=GLITGGRRT measure=pIC50 recorded_number=4.72

Assign pIC50 to the following record: YFGPAAEGI 6.60

Assign pIC50 to the following record: DNTQSEHSF 4.30

Assign pIC50 to the following record: TIHHASAPL 4.33

Assign pIC50 to the following record: RTFSIPLGV 4.48

* * *

// values below are reported pKd
# system_name: HLA-B*44:02
# assay_procedure: IEDB peptide-MHC binding, purified MHC/competitive/radioactivity; filed as Kd, often an IC50 or EC50 that approximates it; bounds were set here for any values at or beyond the usual limits of such assays
# recorded_conditions: source organism: Dengue virus 4 Philippines/H241/1956
Expect pKd as a plain number equal to -log10 of the molar concentration.

Recorded pKd, per entry:
residue_sequence=TEIASLPTY recorded_number=7.89
residue_sequence=AETWMSSEG recorded_number=6.37

We next turn to a different sequence, shown below.
Assign pKd to the following record: LETLMLVAL 5.96

* * *

# system_name: HLA-A*02:02
# assay_procedure: IEDB peptide-MHC binding, purified MHC/competitive/radioactivity; filed as Kd, often an IC50 or EC50 that approximates it; bounds were set here for any values at or beyond the usual limits of such assays
# recorded_conditions: source organism: Lymphocytic choriomeningitis virus (strain Armstrong)
measure: pKd
Expect pKd as a plain number equal to -log10 of the molar concentration.

Report its pKd with HLA-A*02:02 as the test system: NSLILLECFV 8.92

* * *

# system_name: HLA-A*03:01
# assay_procedure: IEDB peptide-MHC binding, purified MHC/competitive/fluorescence; filed as Kd, often an IC50 or EC50 that approximates it; bounds were set here for any values at or beyond the usual limits of such assays
# recorded_conditions: source organism: Influenza A virus (A/equine/California/8560/2002(H3N8))
measure: pKd
Expect pKd as a plain number equal to -log10 of the molar concentration.

Assign pKd to the following record: MTIASVPTSR 5.99

* * *

// values below are reported Kd
# system_name: HLA-B*44:02
# assay_procedure: IEDB peptide-MHC binding, purified MHC/competitive/radioactivity; filed as Kd, often an IC50 or EC50 that approximates it; bounds were set here for any values at or beyond the usual limits of such assays
# recorded_conditions: source organism: Mammarenavirus brazilense
Record the value in nM, omitting the unit from your answer.

residue_sequence=EELSTLYEAL system_name=HLA-B*44:02 recorded_number=1890

We next turn to a different sequence, shown below.
Report its Kd with HLA-B*44:02 as the test system: RELLGYCVSL 1920

* * *

# system_name: HLA-B*07:02
# assay_procedure: IEDB peptide-MHC binding, purified MHC/competitive/radioactivity; bounds were set here for any values at or beyond the usual limits of such assays
# recorded_conditions: source organism: Toxoplasma gondii
pIC50: −log10 of the molar value.
measure: pIC50

Assign pIC50 to the following record: STFWPCLLR ≤ 4.30
